- Study system: PACAP-R2 (Homo sapiens)
- Construct: expressed in transfected cells; host or cells: CHO cells
- Sequence (P32241 31-457, species assumed): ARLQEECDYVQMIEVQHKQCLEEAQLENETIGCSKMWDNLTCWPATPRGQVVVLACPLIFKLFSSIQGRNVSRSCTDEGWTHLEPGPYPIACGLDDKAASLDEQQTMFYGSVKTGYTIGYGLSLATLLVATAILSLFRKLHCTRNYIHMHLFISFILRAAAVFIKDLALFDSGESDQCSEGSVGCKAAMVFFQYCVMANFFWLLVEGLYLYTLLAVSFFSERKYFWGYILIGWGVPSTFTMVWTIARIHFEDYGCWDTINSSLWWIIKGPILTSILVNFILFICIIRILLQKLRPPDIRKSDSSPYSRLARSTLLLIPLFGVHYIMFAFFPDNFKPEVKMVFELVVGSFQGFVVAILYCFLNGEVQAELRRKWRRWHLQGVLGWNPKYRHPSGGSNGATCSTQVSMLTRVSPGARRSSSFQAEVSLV
- Assay notes: Cyclic AMP SPA on CHO cells transfected with PACAP-R2
- Format: cell-based
- Protocol conditions: cAMP SPA, EC50 = concentration at which 50% of maximum PACAP27 activity is achieved, NA = no detectable activities
No end group written: not given here.
Assay readout: EC50
Provide a numeric answer, followed by its unit.

Prompt: Any idea what EC50 was measured for HSDGIFTDSYSRYRKQLAAKKYLADVKK [Peptide R3P38] ?
Completion: 17 nM

Every entry's value here was drawn from patent EP1192182B1.
